Values compiled from patent US12091425B2.

biological target: Mcl-1/Bim interaction, recombinant human Mcl-1 (171-327) (Homo sapiens, UniProt Q07820); construct: made in house; test: Cell free Mcl-1: Bim Affinity Assay (Mcl-1 HTRF); format: binding; conditions: cell free Mcl-1:Bim TR-FRET, recombinant human Mcl-1 (171-327)
Sequence (Q07820 171-327): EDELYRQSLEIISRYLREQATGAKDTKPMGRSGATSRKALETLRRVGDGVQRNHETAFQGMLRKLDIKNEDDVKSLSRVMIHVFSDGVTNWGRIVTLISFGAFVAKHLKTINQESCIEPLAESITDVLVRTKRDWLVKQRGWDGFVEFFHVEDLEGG
Label scheme for IC50: lower level (below 1 nM), middle level (1 nM to below 10 nM), upper level (10 nM or more)

# compound, group
measured = [
    ("C[C@H](O)C[C@@H]1CC/C=C\\[C@H](O)[C@@H]2CC[C@H]2CN2C[C@@]3(CCCc4cc(Cl)ccc43)COc3ccc(cc32)C(=O)NS1(=O)=O (single isomer, unassigned)", "lower level"),
    ("CO[C@H]1/C=C\\CC[C@@H](C[C@@H](C)O)S(=O)(=O)NC(=O)c2ccc3c(c2)N(C[C@@H]2CC[C@H]21)C[C@@]1(CCCc2cc(Cl)ccc21)CO3 (single isomer, unassigned)", "lower level"),
    ("COC(=O)CC[C@]1(C)CC/C=C\\[C@H](O)[C@@H]2CC[C@H]2CN2C[C@@]3(CCCc4cc(Cl)ccc43)COc3ccc(cc32)C(=O)NS1(=O)=O (single isomer, unassigned)", "middle level"),
    ("C[C@@H](O)C[C@H]1CC/C=C/[C@H](O)[C@@H]2CC[C@H]2CN2C[C@@]3(CCCc4cc(Cl)ccc43)COc3ccc(cc32)C(=O)NS1(=O)=O (single isomer, unassigned)", "middle level"),
    ("COCC[C@H]1C[C@H](C)/C=C/[C@H](O)[C@@H]2CC[C@H]2CN2C[C@@]3(CCCc4cc(Cl)ccc43)COc3ccc(cc32)C(=O)NS1(=O)=O (single isomer, unassigned)", "middle level"),
]

Category of CC(C)(O)[C@@H]1CC/C=C/[C@H](O)[C@@H]2CC[C@H]2CN2C[C@@]3(CCCc4cc(Cl)ccc43)COc3ccc(cc32)C(=O)NS1(=O)=O (single isomer, unassigned) [Example 697] , please.
lower level

Similarly, CO[C@H]1/C=C/CC[C@@H](CC(C)(C)OC)S(=O)(=O)NC(=O)c2ccc3c(c2)N(C[C@@H]2CC[C@H]21)C[C@@]1(CCCc2cc(Cl)ccc21)CO3 (single isomer, unassigned) ?
lower level

Now consider O=C1NS(=O)(=O)CCCC[C@@H]2CC[C@H]2CN2C[C@@]3(CCCc4cc(Cl)ccc43)COc3ccc1cc32 and answer again.
upper level

Here is the next compound: COc1ccc(CNCCO[C@H]2/C=C/C[C@H](C)[C@@H](C)S(=O)(=O)NC(=O)c3ccc4c(c3)N(C[C@@H]3CC[C@H]32)C[C@@]2(CCCc3cc(Cl)ccc32)CO4)c(OC)c1
upper level

// query: O=C1NS(=O)(=O)C[C@H](O)/C=C/C[C@H](O)[C@@H]2CC[C@H]2CN2C[C@@]3(CCCc4cc(Cl)ccc43)COc3ccc1cc32 (single isomer, unassigned)
middle level

----------
// pIC50 lookup, one value per entry
biological target: Mcl-1/Bim interaction, recombinant human Mcl-1 (171-327) (Homo sapiens); construct: made in house; experiment: Cell free Mcl-1: Bim Affinity Assay (Mcl-1 HTRF); assay type: binding; conditions: cell free Mcl-1:Bim TR-FRET, recombinant human Mcl-1 (171-327)
Keep in mind that pIC50 stands for -log10 of concentration in molar terms.

# compound, target_entity, pIC50
rows = [
    ("CN(C)C(=O)CC[C@@H]1CC/C=C/[C@H](O)[C@@H]2CC[C@H]2CN2C[C@@]3(CCCc4cc(Cl)ccc43)COc3ccc(cc32)C(=O)NS1(=O)=O (single isomer, unassigned) [Example 618]", "Mcl-1/Bim interaction, recombinant human Mcl-1 (171-327) (Homo sapiens)", 9.76),
    ("O=C1NS(=O)(=O)CCCCC[C@@H]2CC[C@H]2CN2C[C@@]3(CCCc4cc(Cl)ccc43)COc3ccc1cc32 [Example 818]", "Mcl-1/Bim interaction, recombinant human Mcl-1 (171-327) (Homo sapiens)", 7.87),
]

For the next question, use this compound.
Give its pIC50 value. Item: COC[C@H](O)CN1[C@@H](C)C/C=C/[C@H](O)[C@@H]2CC[C@H]2CN2C[C@@]3(CCCc4cc(Cl)ccc43)COc3ccc(cc32)C(=O)NS1(=O)=O [Example 687]
9.69

----------
target: Mcl-1/Bim interaction, recombinant human Mcl-1 (171-327) (Homo sapiens, UniProt Q07820); construct: made in house; assay: Cell free Mcl-1: Bim Affinity Assay (Mcl-1 HTRF); type: binding; conditions: TR-FRET, 0.1 nM Mcl-1 (171-327), 0.05 nM biotin-Bim (51-76)
Measured pIC50 by item
The value called pIC50 is obtained by taking minus log10 of the concentration in mol/L.

# compound, test_value
records = [
    ("CC[C@@H]1CC/C=C/[C@H](OCCC(=O)O)[C@@H]2CC[C@H]2CN2C[C@@]3(CCCc4cc(Cl)ccc43)COc3ccc(cc32)C(=O)NS1(=O)=O", 9.64),
]

Requested field: pIC50. Item: CC1CC=CC(O)C2CCC2CN2CC3(CCCc4cc(Cl)ccc43)COc3ccc(cc32)C(=O)NS(=O)(=O)C1 (single isomer, unassigned)
7.34

O=C1NS(=O)(=O)[C@H](CC2CCOCC2)CC/C=C/[C@H](O)[C@@H]2CC[C@H]2CN2C[C@@]3(CCCc4cc(Cl)ccc43)COc3ccc1cc32 (single isomer, unassigned) [Example 187] , same question.
9.61

Follow-up item: CCOC[C@H]1[C@@H](C)C/C=C/[C@H](O)[C@@H]2CC[C@H]2CN2C[C@@]3(CCCc4cc(Cl)ccc43)COc3ccc(cc32)C(=O)NS1(=O)=O (single isomer, unassigned)
8.84

What about this compound? C[C@@H]1C/C=C/[C@H](O)[C@@H]2CC[C@H]2CN2C[C@@]3(CCCc4cc(Cl)ccc43)COc3ccc(cc32)C(=O)NS(=O)(=O)N1C[C@@H]1CCCO1 (single isomer, unassigned)
8.25

----------
target: Mcl-1/Bim interaction, recombinant human Mcl-1 (171-327) (Homo sapiens, UniProt Q07820); construct: made in house; experiment: Cell free Mcl-1: Bim Affinity Assay (Mcl-1 HTRF); assay type: binding; conditions: TR-FRET, 0.1 nM Mcl-1 (171-327), 0.05 nM biotin-Bim (51-76)
test_readout: IC50 (nM)
Response body: numeric value in nM, unit text excluded.

Before answering, review these 2 worked examples.
# compound, target_entity, test_readout, test_value
records = [
    ("COCCOCCN1CC/C=C/[C@H](O)[C@@H]2CC[C@H]2CN2C[C@@]3(CCCc4cc(Cl)ccc43)COc3ccc(cc32)C(=O)NS1(=O)=O [Example 22]", "Mcl-1/Bim interaction, recombinant human Mcl-1 (171-327) (Homo sapiens, UniProt Q07820)", "IC50", 0.37),
    ("C[C@@H]1[C@@H](C)C/C=C/[C@H](OCC(=O)O)[C@@H]2CC[C@H]2CN2C[C@@]3(CCCc4cc(Cl)ccc43)COc3ccc(cc32)C(=O)NS1(=O)=O [Example 292]", "Mcl-1/Bim interaction, recombinant human Mcl-1 (171-327) (Homo sapiens, UniProt Q07820)", "IC50", 0.0929),
]

Kindly consider the entry below.
Any idea what its IC50 is? The compound is O=C1NS(=O)(=O)[C@H](Cc2nccs2)CC/C=C\[C@H](O)[C@@H]2CC[C@H]2CN2C[C@@]3(CCCc4cc(Cl)ccc43)COc3ccc1cc32 (single isomer, unassigned) [Example 374]
2.86

----------
target: Mcl-1/Bim interaction, recombinant human Mcl-1 (171-327) (Homo sapiens); construct: made in house; test: Cell free Mcl-1: Bim Affinity Assay (Mcl-1 HTRF); assay type: binding; conditions: cell free Mcl-1:Bim TR-FRET, recombinant human Mcl-1 (171-327)
Catalogue of molecules with associated pIC50
// scale note: pIC50 = -log10(conc_M); give the bare number

Need pIC50, item COC(=O)CCC1(C)CCC=CC(O)C2CCC2CN2CC3(CCCc4cc(Cl)ccc43)COc3ccc(cc32)C(=O)NS1(=O)=O (centres unmarked)
8.32

Follow-up entry: CCOC(=O)CO[C@H]1/C=C/CC[C@@H](CC(=O)OC)S(=O)(=O)NC(=O)c2ccc3c(c2)N(C[C@@H]2CC[C@H]21)C[C@@]1(CCCc2cc(Cl)ccc21)CO3
9.19

Okay, and O=C1NS(=O)(=O)[C@H](c2ccccn2)CC/C=C/[C@H](O)[C@@H]2CC[C@H]2CN2C[C@@]3(CCCc4cc(Cl)ccc43)COc3ccc1cc32 (single isomer, unassigned) [Example 692] ?
9.22

Would you mind doing CC[C@@H]1[C@@H](OCCOC)C/C=C/[C@H](O)[C@@H]2CC[C@H]2CN2C[C@@]3(CCCc4cc(Cl)ccc43)COc3ccc(cc32)C(=O)NS1(=O)=O (single isomer, unassigned) as well?
9.14

Another molecule: O=C1NS(=O)(=O)C[C@@H]2C[C@@H]2/C=C/[C@H](O)[C@@H]2CC[C@H]2CN2C[C@@]3(CCCc4cc(Cl)ccc43)COc3ccc1cc32 (single isomer, unassigned) [Example 785]
8.52
